Consider the following binders and their measured glycan array binding signal (z-score) readings.
Target: Gal3S(b1-4)[Fuc(a1-3)]Glc6S
Assay: glycan array binding signal (z-score within array); higher = stronger binding
Conditions: glycan notation: IUPAC condensed, linker removed
Shown is part of a subset that was picked to be rich in the strongest signals.
// no unit, no text: just the number

binder	quantitative-result
PhypaEULS3 (Physcomitrella patens) (protein) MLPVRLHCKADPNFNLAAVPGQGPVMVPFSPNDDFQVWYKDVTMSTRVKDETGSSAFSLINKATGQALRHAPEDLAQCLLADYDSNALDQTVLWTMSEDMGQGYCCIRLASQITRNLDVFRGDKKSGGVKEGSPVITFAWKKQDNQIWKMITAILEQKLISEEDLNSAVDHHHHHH	0.258
AT5G01260(PC)(40) (Arabidopsis thaliana), Q9LFB0 (protein) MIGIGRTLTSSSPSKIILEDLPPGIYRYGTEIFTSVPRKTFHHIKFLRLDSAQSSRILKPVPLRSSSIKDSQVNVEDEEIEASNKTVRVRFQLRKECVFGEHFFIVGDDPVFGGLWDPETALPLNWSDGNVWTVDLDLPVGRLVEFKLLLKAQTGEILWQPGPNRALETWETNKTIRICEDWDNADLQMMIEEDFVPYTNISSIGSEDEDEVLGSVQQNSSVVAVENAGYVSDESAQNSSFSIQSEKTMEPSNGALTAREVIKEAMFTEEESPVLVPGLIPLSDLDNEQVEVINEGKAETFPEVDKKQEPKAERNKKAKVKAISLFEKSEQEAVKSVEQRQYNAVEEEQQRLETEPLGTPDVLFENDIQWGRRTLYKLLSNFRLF	4.34

Switching to the query record.
GS13455A-bfa-343-25-343 (Bacteroides fragilis) (protein) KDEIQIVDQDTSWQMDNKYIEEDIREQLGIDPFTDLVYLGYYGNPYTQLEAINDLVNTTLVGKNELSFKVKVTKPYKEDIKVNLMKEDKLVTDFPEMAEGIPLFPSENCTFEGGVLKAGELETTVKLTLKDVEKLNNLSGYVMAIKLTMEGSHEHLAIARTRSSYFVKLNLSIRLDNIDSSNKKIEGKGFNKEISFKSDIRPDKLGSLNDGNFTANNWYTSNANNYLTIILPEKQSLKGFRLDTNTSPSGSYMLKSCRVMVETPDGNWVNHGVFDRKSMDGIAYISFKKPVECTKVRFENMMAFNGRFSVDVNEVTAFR has a reported glycan array binding signal (z-score) of 1.38
